Item-by-item account of reverse-splicing fitness
B1: Azoarcus group I ribozyme (parent)
chain: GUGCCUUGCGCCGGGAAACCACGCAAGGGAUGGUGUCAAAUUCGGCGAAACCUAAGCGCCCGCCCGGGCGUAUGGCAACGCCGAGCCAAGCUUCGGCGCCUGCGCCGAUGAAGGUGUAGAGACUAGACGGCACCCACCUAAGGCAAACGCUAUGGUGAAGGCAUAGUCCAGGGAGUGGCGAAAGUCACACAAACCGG

- Variants of: B1
- assayOverview: reverse-splicing fitness (ratio to wild type); higher = more active; in vitro selection; Mg2+ level not given
propertyLabel: reverse-splicing fitness

• A111G A120G A145C C150U C169G U176C = 0.036
• C82A A111C A120U A145U C150G C169A U176A = 0.00379
• C82G A120G A145C C169A U176G = 0.0031
• C82U A120C C169G U176G = 0.00419
• C82G A111U A120C A145C C150U U176A = 0.0111
• C82U A111U C150U C169A U176A = 0.0138
• C82U A111C A120U A145U C150U C169G = 0.00301
• C82G A111U A120C C150U U176C = 0.0248
• C82G A120G A145G C150U = 0.0247
• C82U A120G A145G C169U U176G = 0.00378
• C82G A111C A120C A145U C150A U176C = 0.0153
• A111C A120G A145G C169A = 0.123
• A111C A145G C150G C169U U176A = 0.0107
• C82A A111G A120C A145G C150G U176A = 0.00873
• A111U A145C U176G = 0.329
• C82G A111U A120U A145C C150A C169A U176A = 0.00214
• C82U A111C A120G C150U C169A U176C = 0.0113
• A111G A120C A145U C150U U176A = 0.365
• A111U A120G A145U C169U U176A = 0.0488
• A111C A120C C169G U176G = 0.00524
• A111G A120G C150G C169A U176A = 0.00862
• A111G A120C A145C C169G = 0.0105
